Provide the reported Percent Effect of each item.
# Tested on: Trypanosoma cruzi
# methodSummary: Trypanosoma cruzi phosphomannomutase and mannose-1-phosphate guanylyltransferase assay
# Format: functional
# Set-up: scale not given: direction of the effect not stated beside the values
# appliedConditions: 10 µM
Please give a number only; it is taken to be in %.

The recorded Percent Effect for entry CCOC(=O)CCC(=O)NC(C)c1ccc(NC(=O)CC)cc1 (stereo unspecified) equals -1.66

The recorded Percent Effect for entry `O=C(Cn1nc(-c2cccs2)ccc1=O)N1CCCCCC1` equals 1.77

The recorded Percent Effect for entry Cc1nc(C)n(CC2CCCN(c3ncnc4ccsc34)C2)n1 (stereo unspecified) equals -7.08

The recorded Percent Effect for entry CCNC(=O)NC(=O)CSC(C)c1c(F)cccc1F (stereo unspecified) equals -5.55

The recorded Percent Effect for entry `O=C(NCc1nnc2ccccn12)N1CCc2sccc2C1` equals -1.33

The recorded Percent Effect for entry `CCN(CC)C(=O)CCNc1cncc(-n2nc(C)cc2C)n1` equals -7.92
